targetOrSystem: full-length beta-Catenin (Uniprot ID P35222) (Homo sapiens, UniProt P35222)
Construct: 10 nM full-length beta-Catenin (Uniprot ID P35222)
Sequence (P35222 1-781): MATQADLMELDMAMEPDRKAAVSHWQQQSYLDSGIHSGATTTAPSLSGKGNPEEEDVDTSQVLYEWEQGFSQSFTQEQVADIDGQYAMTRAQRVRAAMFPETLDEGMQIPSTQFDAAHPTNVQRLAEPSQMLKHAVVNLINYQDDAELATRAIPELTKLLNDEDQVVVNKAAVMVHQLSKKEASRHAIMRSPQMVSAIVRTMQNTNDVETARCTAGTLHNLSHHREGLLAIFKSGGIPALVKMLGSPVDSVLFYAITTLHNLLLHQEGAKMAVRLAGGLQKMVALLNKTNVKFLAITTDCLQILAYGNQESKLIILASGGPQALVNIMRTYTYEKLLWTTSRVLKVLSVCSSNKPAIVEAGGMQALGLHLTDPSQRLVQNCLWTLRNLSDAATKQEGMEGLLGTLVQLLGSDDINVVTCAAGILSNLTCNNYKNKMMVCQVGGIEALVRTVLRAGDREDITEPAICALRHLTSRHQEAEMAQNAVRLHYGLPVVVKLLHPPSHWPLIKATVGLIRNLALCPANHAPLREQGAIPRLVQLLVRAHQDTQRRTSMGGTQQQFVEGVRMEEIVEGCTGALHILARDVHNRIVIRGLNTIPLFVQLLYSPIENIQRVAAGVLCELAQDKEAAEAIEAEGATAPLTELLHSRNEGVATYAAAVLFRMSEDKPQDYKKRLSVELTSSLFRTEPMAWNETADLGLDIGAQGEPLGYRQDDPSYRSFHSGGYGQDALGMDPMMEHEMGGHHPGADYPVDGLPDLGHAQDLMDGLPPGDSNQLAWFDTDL
testName: Fluorescence polarization IC50 (beta-catenin / 5FAM-TCF4 10-53 competition)
Type: binding
conditionInfo: fluorescence polarization; read-out: beta-Catenin FP IC50
propertyMeasured: pIC50
FYI, pIC50 means -log10 of a concentration in mol per litre.

Exercise: Please give measured pIC50 of the following entry: CCCC[C@@H]1NC(=O)[C@H](CC(=O)O)NC(=O)[C@]2(CC=CCCCC3(CCCC=CCCCCCC[C@@](C)(C(=O)N[C@@H](Cc4ccccc4)C(=O)N[C@@H](Cc4csc5ccccc45)C(=O)N[C@@H](CCC(N)=O)C(N)=O)NC(=O)[C@H](CCC(N)=O)NC(=O)[C@H](Cc4ccccc4)NC(=O)[C@H](C)NC(=O)[C@H](C)NC(=O)[C@H](CCC(=O)O)NC(=O)[C@H](CC(=O)O)NC3=O)NC1=O)CCCN2C(C)=O (some centres unmarked) [I-1521]
Solution: 7.80

Exercise: Please give measured pIC50 of the following entry: CC[C@H](C)[C@@H]1NC(=O)[C@H](CC(=O)O)NC(=O)[C@]2(CC=CCCCC3(CCCC=CCCCCCC[C@@](C)(C(=O)N[C@@H](Cc4ccccc4)C(=O)N[C@@H](Cc4csc5ccccc45)C(=O)N[C@@H](Cc4c[nH]cn4)C(N)=O)NC(=O)[C@H](CCC(N)=O)NC(=O)[C@H](Cc4ccccc4)NC(=O)[C@H](C)NC(=O)[C@H](C)NC(=O)[C@H](CC(=O)O)NC(=O)[C@H](CC(=O)O)NC3=O)NC1=O)CCCN2C(C)=O (some centres unmarked) [I-581]
Solution: 6.95

Exercise: Please give measured pIC50 of the following entry: CC(=O)N1CCC[C@]12CC=CCCCC1(CCCC=CCCCOC(=O)N3CC[C@@](C(=O)N[C@@H](Cc4ccccc4C(F)(F)F)C(=O)N[C@@H](Cc4csc5c(F)cccc45)C(=O)N[C@@H](CCC(N)=O)C(N)=O)(C3)NC(=O)[C@H](CC(C)C)NC(=O)[C@H](Cc3ccccc3)NC(=O)[C@H](C)NC(=O)[C@H](C)NC(=O)[C@H](Cc3cccc(C(=O)O)c3)NC(=O)[C@H](CC(=O)O)NC1=O)NC(=O)[C@H](CC(C)(C)C)NC(=O)[C@H](CC(=O)O)NC2=O (some centres unmarked)
Solution: 7.59

Exercise: Please give measured pIC50 of the following entry: CC(C)C[C@@H]1NC(=O)[C@H](Cc2ccccc2)NC(=O)[C@H](C)NC(=O)[C@H](C)NC(=O)[C@H](CN(CC(=O)O)CC(F)(F)F)NC(=O)[C@H](CC(=O)O)NC(=O)C2(CCCCCCCCOC(=O)N3CC[C@@](C(=O)N[C@@H](Cc4ccsc4)C(=O)N[C@@H](Cc4csc5ccccc45)C(=O)N[C@@H](CCC(N)=O)C(N)=O)(C3)NC1=O)CCCCCCS(=O)(=O)N1CCC[C@@H]1C(=O)N[C@@H](CC(=O)O)C(=O)N[C@@H](CC(C)(C)C)C(=O)N2 (some centres unmarked)
Solution: 6.30

Exercise: Please give measured pIC50 of the following entry: CC[C@@H]1NC(=O)[C@H](CC(=O)O)NC(=O)[C@]2(CC=CCCCC3(CCCC=CCCCCCC[C@@](C)(C(=O)N[C@@H](Cc4ccccc4)C(=O)N[C@@H](Cc4csc5ccccc45)C(=O)N[C@@H](Cc4c[nH]cn4)C(N)=O)NC(=O)[C@H](CC(N)=O)NC(=O)[C@H](Cc4ccccc4)NC(=O)[C@H](C)NC(=O)[C@H](C)NC(=O)[C@H](CC(=O)O)NC(=O)[C@H](CC(=O)O)NC3=O)NC1=O)CCCN2C(C)=O (some centres unmarked) [I-575]
Solution: 7.68

###

Reported EC50 values for the following compounds.
targetOrSystem: full-length B-Catenin (Uniprot ID P35222) (Homo sapiens)
Construct: 65 nM full-length B-Catenin (Uniprot ID P35222)
testName: Alphascreen binding assay (beta-catenin / biotin-TCF4 10-53)
Procedure: In some embodiments, an assay is an Alphascreen binding assay. A useful protocol is described below as an example. Alphascreen binding assay: Using the AlphaScreen Histidine (Nickel Chelate) Detection Kit (PerkinElmer), peptide solutions were prepared in buffer (50 mM Tris pH 8.0, 250 mM NaCl, 2% glycerol, 0.03% Tween-20, 0.01% TritonX-100, 0.1% BSA w/v) using a 3-fold serial dilution from 10 uM to 5 nM. […]
Express it in nM; write the number only.

Exercise: Please give measured EC50 of the following entry: CC[C@H](C)[C@@H]1NC(=O)[C@H](CC(=O)O)NC(=O)[C@]2(CC=CCCCC3(CCCC=CCOC(=O)N(C)CCC[C@@](C)(C(=O)N[C@@H](Cc4ccccc4)C(=O)N[C@@H](Cc4c[nH]c5ccccc45)C(=O)N[C@@H](Cc4c[nH]cn4)C(N)=O)NC(=O)[C@H](CCC(N)=O)NC(=O)[C@H](Cc4ccccc4)NC(=O)[C@H](C)NC(=O)[C@H](C)NC(=O)[C@H](CC(=O)O)NC(=O)[C@H](CC(=O)O)NC3=O)NC1=O)CCCN2C(C)=O (some centres unmarked) [I-188]
Solution: 156

Exercise: Please give measured EC50 of the following entry: CC(=O)N1CCC[C@]12CC=CCCCC1(CCCC=CCCCCCC[C@@](C)(C(=O)N[C@@H](Cc3ccccc3)C(=O)N[C@@H](Cc3c[nH]c4ccccc34)C(=O)N[C@@H](CCC(N)=O)C(N)=O)NC(=O)[C@H](C(C)C)NC(=O)[C@H](Cc3ccccc3)NC(=O)[C@H](C)NC(=O)[C@H](C)NC(=O)[C@H](CCC(N)=O)NC(=O)[C@H](CC(=O)O)NC1=O)NC(=O)[C@H](C)NC(=O)[C@H](CC(=O)O)NC2=O (some centres unmarked) [I-126]
Solution: 1480

###

targetOrSystem: beta-catenin/TCF4 engagement (Homo sapiens)
Construct: expressed in transfected cells; host or cells: HEK293
Sequence (P35222 1-781): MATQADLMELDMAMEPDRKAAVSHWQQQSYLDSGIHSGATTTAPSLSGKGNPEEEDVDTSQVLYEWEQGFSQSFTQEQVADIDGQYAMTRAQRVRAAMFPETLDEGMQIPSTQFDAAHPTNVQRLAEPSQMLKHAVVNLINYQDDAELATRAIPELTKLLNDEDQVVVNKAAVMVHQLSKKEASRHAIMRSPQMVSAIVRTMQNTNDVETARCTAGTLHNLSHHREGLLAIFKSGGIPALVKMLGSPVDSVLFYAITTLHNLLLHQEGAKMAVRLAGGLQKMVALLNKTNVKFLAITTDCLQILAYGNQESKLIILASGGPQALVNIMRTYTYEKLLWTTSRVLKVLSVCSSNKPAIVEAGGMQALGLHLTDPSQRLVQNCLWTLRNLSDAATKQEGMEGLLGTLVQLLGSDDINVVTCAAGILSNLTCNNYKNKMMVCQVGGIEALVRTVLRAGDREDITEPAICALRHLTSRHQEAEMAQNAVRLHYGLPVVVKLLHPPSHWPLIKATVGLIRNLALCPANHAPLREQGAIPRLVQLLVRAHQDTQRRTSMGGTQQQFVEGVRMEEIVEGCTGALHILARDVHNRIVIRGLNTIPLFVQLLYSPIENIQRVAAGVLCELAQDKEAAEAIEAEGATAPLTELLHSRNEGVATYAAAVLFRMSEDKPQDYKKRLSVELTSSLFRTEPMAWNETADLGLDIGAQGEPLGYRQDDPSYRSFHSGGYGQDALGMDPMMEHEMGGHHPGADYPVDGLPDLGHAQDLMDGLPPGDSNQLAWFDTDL
testName: Nano-BRET target engagement assay (B-cat-Halo & TCF4-Luc in HEK293 cells)
Format: cell-based
conditionInfo: absolute IC50; read-out: NanoBRET Abs IC50
propertyMeasured: IC50 (µM)
Express it in µM; write the number only.

- compound: "CC(=O)N1CCC[C@]12CC=CCCCC1(CCCC=CCCCOC(=O)N3CC[C@@](C(=O)N[C@@H](Cc4ccsc4)C(=O)N[C@@H](Cc4cccc(Br)c4)C(=O)N[C@@H](C)C(N)=O)(C3)NC(=O)[C@H](C(C)C)NC(=O)[C@H](Cc3ccccc3)NC(=O)[C@H](C)NC(=O)[C@H](CCC(N)=O)NC(=O)[C@H](Cc3cccc(C(=O)O)c3)NC(=O)[C@H](CC(=O)O)NC1=O)NC(=O)[C@H](CC(C)(C)C)NC(=O)[C@H](CC(=O)O)NC2=O (stereo partly drawn)"
  IC50 [µM]: 6
- compound: "CC[C@@H]1NC(=O)[C@H](Cc2ccccc2)NC(=O)[C@H](C)NC(=O)C(C)(C)NC(=O)[C@H](Cc2cccc(C(=O)O)c2)NC(=O)[C@H](CC(=O)O)NC(=O)C2(CCCC=CCCCOC(=O)N3CC[C@@](C(=O)N[C@@H](Cc4ccsc4)C(=O)N[C@@H](Cc4csc5ccccc45)C(=O)N[C@@H](CCC(=O)N4CCN(C(C)=O)CC4)C(N)=O)(C3)NC1=O)CCCC=CC[C@]1(CCCN1C(C)=O)C(=O)N[C@@H](CC(=O)O)C(=O)N[C@@H](CC(C)(C)C)C(=O)N2 (stereo partly drawn)"
  IC50 [µM]: 7.2

Field: next compound
Exercise: Please give measured IC50 of the following entry: CC(=O)N1CCC[C@]12CC=CCCCC1(CCCC=CCCCOC(=O)N3CC[C@@](C(=O)N[C@@H](Cc4ccccc4Cl)C(=O)N[C@@H](Cc4csc5ccccc45)C(=O)N[C@@H](C(N)=O)[C@H](C)O)(C3)NC(=O)[C@H](CC(N)=O)NC(=O)[C@H](Cc3ccccc3)NC(=O)[C@H](C)NC(=O)[C@H](C)NC(=O)[C@H](CCC(=O)O)NC(=O)[C@H](CC(=O)O)NC1=O)NC(=O)[C@H](CC(C)(C)C)NC(=O)[C@H](CC(=O)O)NC2=O (stereo partly drawn)
Solution: 8.8
